# Target system: PDGF-Ra (Homo sapiens)
# Construct: host or cells: G-292 human osteosarcoma cells
# Sequence (P16234 24-1089): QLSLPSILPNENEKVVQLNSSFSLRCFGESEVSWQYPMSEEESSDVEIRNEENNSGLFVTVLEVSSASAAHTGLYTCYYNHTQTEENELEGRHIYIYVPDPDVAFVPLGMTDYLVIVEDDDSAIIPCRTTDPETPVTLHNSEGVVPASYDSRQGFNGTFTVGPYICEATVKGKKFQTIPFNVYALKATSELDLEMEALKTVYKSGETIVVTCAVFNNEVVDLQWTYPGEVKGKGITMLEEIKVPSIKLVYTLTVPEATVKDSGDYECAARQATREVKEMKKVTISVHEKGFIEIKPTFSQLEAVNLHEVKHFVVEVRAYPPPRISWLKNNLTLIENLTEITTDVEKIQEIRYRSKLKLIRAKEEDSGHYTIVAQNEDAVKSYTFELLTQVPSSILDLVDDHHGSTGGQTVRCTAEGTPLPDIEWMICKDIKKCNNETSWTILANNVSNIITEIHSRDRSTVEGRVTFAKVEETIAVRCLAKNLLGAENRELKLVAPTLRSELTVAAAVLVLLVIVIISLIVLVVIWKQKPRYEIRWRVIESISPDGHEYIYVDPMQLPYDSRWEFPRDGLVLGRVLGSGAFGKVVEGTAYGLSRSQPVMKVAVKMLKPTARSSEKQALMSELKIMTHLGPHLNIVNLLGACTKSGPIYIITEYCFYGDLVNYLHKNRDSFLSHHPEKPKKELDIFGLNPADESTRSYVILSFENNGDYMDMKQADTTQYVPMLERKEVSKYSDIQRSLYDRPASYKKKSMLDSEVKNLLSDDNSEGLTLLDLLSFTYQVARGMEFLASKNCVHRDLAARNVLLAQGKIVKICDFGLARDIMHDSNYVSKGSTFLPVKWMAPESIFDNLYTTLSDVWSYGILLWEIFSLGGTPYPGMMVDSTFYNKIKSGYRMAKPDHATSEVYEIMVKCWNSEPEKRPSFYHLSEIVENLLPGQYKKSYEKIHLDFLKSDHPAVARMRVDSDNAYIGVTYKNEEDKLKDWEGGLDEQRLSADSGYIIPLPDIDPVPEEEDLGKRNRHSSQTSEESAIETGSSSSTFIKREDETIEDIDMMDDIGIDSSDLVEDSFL
# Procedure text: Inhibitory activity against PDGF-Ra phosphorylation by PDGF-AA stimulation using G292
# Format: cell-based
# Test parameters: > means inhibition at indicated concentration not more than 50%, < and << not less than 50%; read-out: PDGF (E) IC50
Quantity name: IC50 (nM)

COc1cc2nccc(Oc3ccc(NC(=S)NC(=O)C4C(C)(C)C4(C)C)cc3)c2cc1OC [Example 759] :: 26
COc1cc(Oc2ncnc3cc(OC)c(OC)cc23)ccc1NC(=O)NC1CCN(Cc2ccccc2)CC1 [Example 641] :: 28
COc1cc2nccc(Oc3ccc(NC(=S)NC(=O)c4ccc(F)cc4F)c(Cl)c3)c2cc1OC [Example 1202] :: 50
C=C(C)COC(=O)Nc1ccc(Oc2ncnc3cc(OC)c(OC)cc23)cc1 [Example 407] :: 26
COc1cc2ncnc(Oc3ccc(NC(=S)NC(=O)C4(c5ccccc5)CC4)cc3)c2cc1OC [Example 1195] :: 21

A. COc1cc2nccc(Oc3ccc(NC(=S)NC(=O)Cc4cccc5ccccc45)cc3Cl)c2cc1OC [Example 708]
B. COc1cc2ncnc(Oc3ccc(N(C)C(=O)OCc4ccccc4Cl)c(Cl)c3)c2cc1OC [Example 480]
Consider A and B . Which of these has its IC50 at a higher number? # answer = label of selected item
A
(A: 51 nM, B: 10 nM)

P. COc1cc2nccc(Oc3ccc(NC(=S)NC(=O)c4ccc(CCl)cc4)cc3Cl)c2cc1OC [Example 1137]
Q. COc1cc2ncnc(Oc3ccc(NC(=O)OCc4ccccc4C)c([N+](=O)[O-])c3)c2cc1OC [Example 505]
R. COc1ccc(C(=O)NC(=S)Nc2ccc(Oc3ccnc4cc(OC)c(OC)cc34)c(Cl)c2)cc1OC [Example 1204]
Ordering: ascending IC50. Your answer should be the labels, listed in the requested order.
R, P, Q
(R: 18 nM, P: 28 nM, Q: 53 nM)

A. CCN(CC)CCNC(=S)Nc1ccc(Oc2ccnc3cc(OC)c(OC)cc23)cc1 [Example 589]
B. COc1cc2ncnc(Oc3ccc(OCCCn4ccc5ccccc54)cc3)c2cc1OC [Example 811]
Consider A and B . Which of these has its IC50 at a higher number? # answer = label of selected item
A
(A: 28 nM, B: 17 nM)

A. COc1cc2nccc(Oc3ccc(NC(=S)NC(=O)CC4CCCCC4)cc3)c2cc1OC [Example 1023]
B. COc1cc2ncnc(Oc3ccc(NC(=S)NCCN(C(C)C)C(C)C)cc3)c2cc1OC [Example 535]
Consider A and B . Which of these has its IC50 at a higher number? # answer = label of selected item
B
(B: 32 nM, A: 22 nM)

Data credit: patent US7135466B2
